- Tested on: Escherichia coli TOP10
- Assay protocol: shrunken log2 fold change of peptide-encoding DNA abundance (4.5 h post-induction vs induction); higher = less antimicrobial activity (less host growth inhibition)
- Applied conditions: time post-induction: 4.5 h; library: site-saturation at positions 5, 18, 19, 20

Sequence record | Assayed target | shrunken log2 fold change
RRIRKRPPRLPRPRPRPSPHPRP | Escherichia coli TOP10 | -0.0333
RRIRHRPPRLPRPRPRPPCPPRP | Escherichia coli TOP10 | -0.0235
RRIRCRPPRLPRPRPRPACRPRP | Escherichia coli TOP10 | 0.128
RRIRLRPPRLPRPRPRPYEHPRP | Escherichia coli TOP10 | -0.583
RRIRTRPPRLPRPRPRPRWGPRP | Escherichia coli TOP10 | 0.164
RRIRWRPPRLPRPRPRPFDYPRP | Escherichia coli TOP10 | -0.554
RRIRWRPPRLPRPRPRPMRLPRP | Escherichia coli TOP10 | 0.905
RRIRNRPPRLPRPRPRPMFSPRP | Escherichia coli TOP10 | -0.186
RRIRSRPPRLPRPRPRPCRQPRP | Escherichia coli TOP10 | -0.184
RRIRKRPPRLPRPRPRPFVRPRP | Escherichia coli TOP10 | 0.00981
RRIRVRPPRLPRPRPRPNCRPRP | Escherichia coli TOP10 | -0.0746
RRIRQRPPRLPRPRPRPDMPPRP | Escherichia coli TOP10 | -0.2
RRIRERPPRLPRPRPRPYWNPRP | Escherichia coli TOP10 | -0.858
RRIRPRPPRLPRPRPRPSGAPRP | Escherichia coli TOP10 | 0.345
RRIRIRPPRLPRPRPRPWSHPRP | Escherichia coli TOP10 | -0.416

* * *

- System: Escherichia coli TOP10;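 also: peptides expressed intracellularly from a pBAD plasmid library in pooled LB shake-flask culture, induced with 0.3% L-arabinose, DNA abundance read by NGS, three biological replicates, DESeq2 with apeglm shrinkage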
- Assay protocol: shrunken log2 fold change of peptide-encoding DNA abundance (4.5 h post-induction vs induction); higher = less antimicrobial activity (less host growth inhibition)
- Applied conditions: time post-induction: 4.5 h; library: site-saturation at positions 5, 18, 19, 20

Sequence record | shrunken log2 fold change
RRIRMRPPRLPRPRPRPPMLPRP | 0.382
RRIRLRPPRLPRPRPRPVDSPRP | 0.0702
RRIRRRPPRLPRPRPRPGCRPRP | 0.459
RRIRPRPPRLPRPRPRPFHNPRP | -0.541
RRIRWRPPRLPRPRPRPHHQPRP | -0.316
RRIRTRPPRLPRPRPRPFYFPRP | -0.57
RRIRTRPPRLPRPRPRPARLPRP | 0.215
RRIRKRPPRLPRPRPRPYTMPRP | -0.53
RRIRMRPPRLPRPRPRPMKKPRP | -0.00637
RRIRPRPPRLPRPRPRPTTRPRP | 1.65
RRIRIRPPRLPRPRPRPWKYPRP | -0.254
RRIRKRPPRLPRPRPRPANFPRP | -0.0479
RRIRNRPPRLPRPRPRPTTHPRP | 0.102
RRIRWRPPRLPRPRPRPPVCPRP | 0.15
RRIRRRPPRLPRPRPRPYMRPRP | 0.044
RRIRTRPPRLPRPRPRPTLFPRP | -0.113
RRIRDRPPRLPRPRPRPLVGPRP | 0.337
RRIRPRPPRLPRPRPRPGLEPRP | 0.195
RRIRVRPPRLPRPRPRPKKEPRP | 0.18
RRIRGRPPRLPRPRPRPMREPRP | -0.00527
RRIRRRPPRLPRPRPRPKREPRP | 0.304
RRIRIRPPRLPRPRPRPWFPPRP | -0.349
RRIRQRPPRLPRPRPRPATLPRP | -0.0197
RRIRYRPPRLPRPRPRPERHPRP | -0.0384
RRIRMRPPRLPRPRPRPRNIPRP | 0.0054
RRIRLRPPRLPRPRPRPVYEPRP | 0.788
RRIRWRPPRLPRPRPRPWEWPRP | -0.00895
RRIRPRPPRLPRPRPRPWDFPRP | 0.122
RRIRMRPPRLPRPRPRPEPLPRP | 0.277
RRIRRRPPRLPRPRPRPIDFPRP | 0.137
RRIRWRPPRLPRPRPRPFVLPRP | 0.231
RRIRGRPPRLPRPRPRPDHEPRP | 0.858
